Target: UniProt:P19801
Sequence (P19801 20-751): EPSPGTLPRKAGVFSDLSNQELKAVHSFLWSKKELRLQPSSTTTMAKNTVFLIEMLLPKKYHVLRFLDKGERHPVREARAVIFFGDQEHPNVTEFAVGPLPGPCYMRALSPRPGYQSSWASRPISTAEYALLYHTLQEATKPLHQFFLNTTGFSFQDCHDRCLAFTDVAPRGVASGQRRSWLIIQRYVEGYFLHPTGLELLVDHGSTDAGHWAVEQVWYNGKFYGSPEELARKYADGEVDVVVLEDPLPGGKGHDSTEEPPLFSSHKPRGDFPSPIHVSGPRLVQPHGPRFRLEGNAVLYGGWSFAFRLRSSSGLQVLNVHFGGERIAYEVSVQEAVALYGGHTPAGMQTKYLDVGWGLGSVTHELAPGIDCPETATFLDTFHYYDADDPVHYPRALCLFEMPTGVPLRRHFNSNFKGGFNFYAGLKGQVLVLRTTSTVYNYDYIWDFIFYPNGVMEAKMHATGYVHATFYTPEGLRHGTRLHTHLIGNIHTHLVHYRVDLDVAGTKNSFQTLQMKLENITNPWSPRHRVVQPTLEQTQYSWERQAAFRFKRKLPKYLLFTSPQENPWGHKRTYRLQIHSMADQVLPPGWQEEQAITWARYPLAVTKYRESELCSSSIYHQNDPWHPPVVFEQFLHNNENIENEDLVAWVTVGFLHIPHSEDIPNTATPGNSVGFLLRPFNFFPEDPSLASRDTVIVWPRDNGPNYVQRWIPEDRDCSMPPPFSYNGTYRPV
Assay: DAO inhibition (Amplex Red continuous fluorescence assay)
Format: biochemical
Conditions: 30 min pre-incubation at room temp; substrate histamine; read-out: Human DAO IC50
pIC50: −log10 of the molar value. Structures can show the parent of a compound that is named as a salt.

compound | assayed.system | pIC50
CCC(=O)Nc1ccc(OC/C(=C/F)CN)cc1 | UniProt:P19801 | 5.00 to 5.52
CCN(CC)C(=O)Nc1ccc(OC/C(=C/F)CN)cc1 [Compound 24, hydrochloride] | UniProt:P19801 | < 5.00
NC/C(=C\F)COc1ccc(-c2ncco2)cc1 [Compound 25, hydrochloride] | UniProt:P19801 | > 5.52
NC/C(=C\F)COc1ccc(C2=NCCN2)cc1 | UniProt:P19801 | > 5.52
NC/C(=C\F)COc1cnc(N2CC[C@H](O)C2)nc1 | UniProt:P19801 | > 5.52
Cn1ccc(-c2ccc(OC/C(=C/F)CN)cc2)n1 [Compound 50, hydrochloride] | UniProt:P19801 | > 5.52
NC/C(=C\F)COc1ccc(-c2cnc[nH]2)cc1 | UniProt:P19801 | > 5.52
NC/C(=C\F)COc1cccc2c1OCO2 [Compound 14, hydrochloride] | UniProt:P19801 | 5.00 to 5.52
CC(C)(C)NC(=O)c1cccc2c1ccn2CC(=CF)CN | UniProt:P19801 | < 5.00
NC/C(=C/F)COc1ccc(-c2ccccc2)cc1 [Compound 34, hydrochloride] | UniProt:P19801 | > 5.52
NC/C(=C\F)COc1ccc(-c2ncc[nH]2)cc1 | UniProt:P19801 | > 5.52
NC/C(=C/F)COc1ccc(-c2nccs2)cc1 [Compound 20, Hydrochloride] | UniProt:P19801 | > 5.52
NC/C(=C\F)COc1ccc(-c2ncon2)cc1 [Compound 43, hydrochloride] | UniProt:P19801 | > 5.52
NC/C(=C\F)COC(=O)Nc1ccccc1 | UniProt:P19801 | > 5.52
Cn1nccc1-c1ccc(OC/C(=C/F)CN)cc1 [Compound 48, hydrochloride] | UniProt:P19801 | > 5.52
NC/C(=C\F)COc1ccc(-c2nc3ccccc3[nH]2)cc1 [Compound 10, hydrochloride] | UniProt:P19801 | > 5.52
NC/C(=C\F)COc1ccc(-c2nnn[nH]2)cc1 [Compound 51, hydrochloride] | UniProt:P19801 | 5.00 to 5.52
NC/C(=C\F)COc1ccc(-c2ccccc2)cc1 [Compound 33, hydrochloride] | UniProt:P19801 | < 5.00
NC/C(=C/F)COc1ccc(-c2ncon2)cc1 [Compound 44, HYDROCHLORIDE] | UniProt:P19801 | > 5.52
NC/C(=C/F)COc1ccc(-c2ncco2)cc1 [Compound 53, hydrochloride] | UniProt:P19801 | > 5.52
Cn1nccc1-c1ccc(OC/C(=C\F)CN)cc1 [Compound 49, hydrochloride] | UniProt:P19801 | > 5.52
NC/C(=C\F)COc1ccc(-c2ccn[nH]2)cc1 [Compound 42, hydrochloride] | UniProt:P19801 | > 5.52
NCC(=CF)COc1ccc(-c2cnn[nH]2)cc1 | UniProt:P19801 | > 5.52
CCOC(=O)Nc1ccc(OC/C(=C/F)CN)cc1 | UniProt:P19801 | 5.00 to 5.52
NC/C(=C\F)COc1cccc2scnc12 [Compound 8, hydrochloride] | UniProt:P19801 | > 5.52
NC/C(=C\F)COc1ccc(C(=O)NCCCCCNC(=O)CCCCC2SCC3NC(=O)NC32)cc1 (centres unmarked) | UniProt:P19801 | > 5.52
NC/C(=C\F)COCc1ccccc1 [Compound 5, hydrochloride] | UniProt:P19801 | < 5.00
NC/C(=C\F)COCc1cccs1 | UniProt:P19801 | < 5.00
NC/C(=C\F)COc1ccc(-c2ncccn2)cc1 [Compound 37, hydrochloride] | UniProt:P19801 | > 5.52
NC/C(=C/F)COc1ccc(-c2nnn[nH]2)cc1 [Compound 52, hydrochloride] | UniProt:P19801 | > 5.52
CCNC(=O)Oc1ccc(OC/C(=C\F)CN)cc1 | UniProt:P19801 | > 5.52
NC/C(=C/F)COc1ccc(-c2nc3ccccc3[nH]2)cc1 [Compound 11, hydrochloride] | UniProt:P19801 | > 5.52
CCNC(=O)Nc1ccc(OC/C(=C/F)CN)cc1 [Compound 7, hydrochloride] | UniProt:P19801 | 5.00 to 5.52
Cn1cnc(-c2ccc(OC/C(=C/F)CN)cc2)c1 | UniProt:P19801 | > 5.52
NC/C(=C\F)COc1ccc(-c2nccs2)cc1 [Compound 19, hydrochloride] | UniProt:P19801 | > 5.52
NC/C(=C\F)Cn1ncc(-c2ccc(O)cc2)n1 [Compound 57, hydrochloride] | UniProt:P19801 | > 5.52
NC/C(=C\F)CNC(=O)Nc1ccccc1 | UniProt:P19801 | 5.00 to 5.52
NC/C(=C/F)COc1ccc(-c2ncc[nH]2)cc1 | UniProt:P19801 | > 5.52

These entries and their values trace back to patent US20210238192A1.
